SPOT peptide array binding signal intensity: recorded values
- TESTED TARGET: AgRvs167
- MEASUREMENT DESCRIPTION: SPOT peptide array binding signal intensity (averaged, normalized) (arbitrary units (background-subtracted, floor 0; scale differs between SH3 domains)); higher = stronger binding of the SH3 domain to the peptide
VALUE TYPE: SPOT peptide array binding signal intensity

BINDER	RECORDED RESULT
RPVPPPPPMRTTTEG	1050
YVRRRPRVRLEPLLS	14.1
VLRFLGFPLPIFEKG	1.67
TIRRRAPLSLLESHT	3
NRPAIRIPSLKKPAL	1.33
NPLPKEPRLPKRKVA	23
LKPPIGRPPKFPKSP	0.583
PIVPSSPAPPLPLSG	≤ 0
LPMNIQPDLPPRKIM	525
IPSRPAPKPPSSASA	1.67
APPPPPRRATPEKKP	209
RFKRHRLEFPFNESE	5.33
RSVKRPRRAPRPVVS	2.17
KFIPSRPAPKPPSSA	5.5
ILARAILTIPRVLDK	12
